- System: P. berghei sporozoites
- Format: cell-based
- runParameters: liver blood index LBI = W2/Pb

compound: O=c1cc[nH]c2cc(OCCOc3ccccc3)ccc12 [Compound 8a]
LBI (W2/Pb): <16.8

compound: COC(=O)c1c[nH]c2cc(F)ccc2c1=O [Compound 6n]
LBI (W2/Pb): <0.262

compound: COC(=O)c1c[nH]c2ccc(-c3ccccc3)cc2c1=O [Compound 6u]
LBI (W2/Pb): <11.7

compound: CCCc1cc2c(=O)c(C(=O)OC)c[nH]c2cc1OCCOc1ccccc1 [Compound 6x]
LBI (W2/Pb): >2.62

compound: CCCCCc1cc2c(=O)c(C(=O)OC)c[nH]c2cc1OCCOc1ccccc1 [Compound 6y]
LBI (W2/Pb): >0.33

* * *

- Tested on: J774 cell lines
- runDescription: cytotoxicity in J774 cells, 96 well plate format
- Format: cell-based
- runParameters: Mus musculus, J774, read-out: EC50 J774 (internal controls)
propertyMeasured: EC50 (µM)

molecule: O=C1C(O)=C([C@H]2CC[C@H](c3ccc(Cl)cc3)CC2)C(=O)c2ccccc21
propertyMeasured: EC50
unitOfMeasure: µM
measuredResult: 23.8

molecule: CCN(CC)CCCC(C)Nc1ccnc2cc(Cl)ccc12 (stereo not drawn)
propertyMeasured: EC50
unitOfMeasure: µM
measuredResult: 47.2

molecule: C[C@H]1[C@@H](O)O[C@@H]2O[C@@]3(C)CC[C@H]4[C@H](C)CC[C@@H]1[C@@]24OO3 [DHA, dihydroartemisinin]
propertyMeasured: EC50
unitOfMeasure: µM
measuredResult: 1.53

* * *

- Tested on: P. falciparum TM90-C2B
- runDescription: microbe, parasite or virus in culture
- Type: cell-based
- runParameters: Plasmodium falciparum, TM90, read-out: EC50 TM90-C2B
pEC50: −log10 of the molar value.
propertyMeasured: pEC50

molecule: O=C1C(O)=C([C@H]2CC[C@H](c3ccc(Cl)cc3)CC2)C(=O)c2ccccc21 [ATO, atovaquone]
propertyMeasured: pEC50
measuredResult: 7.74
